Attribution: patent US20260234164A1

system: PD-1/PD-L1-mediated T cell activation inhibitory signal; assay: CHO-PD-L1-CD3L / Jurkat-PD-1-NFAT co-culture luciferase reporter assay; type: cell-based; details: Homo sapiens, co-culture 6 h, read-out: EC50 blocking PD-1/PD-L1-mediated T cell activation inhibitory signal
List of EC50 values.
Number in nM, nothing else.

Example entries begin here.
{"compound": "[2H]C([2H])([2H])OCC12CCC(CCN3CCc4c(nc(C(=O)Nc5cccc(-c6cccc(NC(=O)c7nc8c(n7C([2H])([2H])[2H])CCN(CCC79CCC(C(=O)O)(CC7)C9)C8)c6Cl)c5F)n4C([2H])([2H])[2H])C3)(CC1)C2 (single isomer, unassigned) [Compound I-7]", "units_symbol": "nM", "measured_number": 19.6}
{"compound": "[2H]C([2H])([2H])OCC12CCC(CCN3CCc4c(nc(C(=O)Nc5cccc(-c6cccc(NC(=O)c7nc8c(n7C)CCN(CCC79CCC(C(=O)O)(CC7)C9)C8)c6Cl)c5F)n4C)C3)(CC1)C2 (single isomer, unassigned) [Compound I-2]", "units_symbol": "nM", "measured_number": 19.8}
{"compound": "[2H]c1c([2H])c(NC(=O)c2nc3c(n2C)CCN(CCC24CCC(COC)(CC2)C4)C3)c(F)c(-c2c([2H])c([2H])c([2H])c(NC(=O)c3nc4c(n3C)CCN(CCC35CCC(C(=O)O)(CC3)C5)C4)c2Cl)c1[2H] [Compound I-15]", "units_symbol": "nM", "measured_number": 18.9}

Find the recorded EC50 belonging to [2H]C([2H])([2H])OCC12CCC(CCN3CCc4c(nc(C(=O)Nc5cccc(-c6cccc(NC(=O)c7nc8c(n7C([2H])([2H])[2H])CCN(CCC79CCC(C(=O)O)(CC7)C9)C8)c6Cl)c5Cl)n4C([2H])([2H])[2H])C3)(CC1)C2 [Compound I-5] and report it.
12.5

====

List of pEC50 values.
test system: PD-1/PD-L1-mediated T cell activation inhibitory signal; assay: CHO-PD-L1-CD3L / Jurkat-PD-1-NFAT co-culture luciferase reporter assay; type: cell-based; settings: Homo sapiens, co-culture 6 h, read-out: EC50 blocking PD-1/PD-L1-mediated T cell activation inhibitory signal
When answering, recall that pEC50 equals minus log10 of the concentration in mol/L, and write that number alone.

{"compound": "[2H]C([2H])([2H])n1c(C(=O)Nc2cccc(-c3cccc(NC(=O)c4nc5c(n4C([2H])([2H])[2H])CCN(CCC46CCC(C(=O)O)(CC4)C6)C5)c3Cl)c2F)nc2c1CCN(CCC13CCC(COC)(CC1)C3)C2 (single isomer, unassigned) [Compound I-8]", "target_of_assay": "PD-1/PD-L1-mediated T cell activation inhibitory signal", "pEC50": 7.35}
{"compound": "[2H]C([2H])([2H])OCC12CCC(CCN3CCc4c(nc(C(=O)Nc5cccc(-c6cccc(NC(=O)c7nc8c(n7C)CCN(CCC79CCC(C(=O)O)(CC7)C9)C8)c6Cl)c5C)n4C)C3)(CC1)C2 [Compound I-4]", "target_of_assay": "PD-1/PD-L1-mediated T cell activation inhibitory signal", "pEC50": 8.01}
{"compound": "[2H]C([2H])([2H])n1c(C(=O)Nc2cccc(-c3cccc(NC(=O)c4nc5c(n4C([2H])([2H])[2H])CCN(CCC46CCC(C(=O)O)(CC4)C6)C5)c3Cl)c2C)nc2c1CCN(CCC13CCC(COC)(CC1)C3)C2 [Compound I-10]", "target_of_assay": "PD-1/PD-L1-mediated T cell activation inhibitory signal", "pEC50": 7.52}
{"compound": "[2H]C([2H])([2H])OCC12CCC(CCN3CCc4c(nc(C(=O)Nc5cccc(-c6cccc(NC(=O)c7nc8c(n7C([2H])([2H])[2H])CCN(CCC79CCC(C(=O)O)(CC7)C9)C8)c6Cl)c5C)n4C([2H])([2H])[2H])C3)(CC1)C2 [Compound I-9]", "target_of_assay": "PD-1/PD-L1-mediated T cell activation inhibitory signal", "pEC50": 7.55}
{"compound": "[2H]C([2H])([2H])OCC12CCC(CCN3CCc4c(nc(C(=O)Nc5cccc(-c6cccc(NC(=O)c7nc8c(n7C([2H])([2H])[2H])CCN(CCC79CCC(C(=O)O)(CC7)C9)C8)c6C)c5Cl)n4C([2H])([2H])[2H])C3)(CC1)C2 [Compound I-11]", "target_of_assay": "PD-1/PD-L1-mediated T cell activation inhibitory signal", "pEC50": 7.23}

Find the recorded pEC50 belonging to [2H]C([2H])([2H])n1c(C(=O)Nc2cccc(-c3cccc(NC(=O)c4nc5c(n4C([2H])([2H])[2H])CCN(CCC46CCC(C(=O)O)(CC4)C6)C5)c3Cl)c2Cl)nc2c1CCN(CCC13CCC(COC)(CC1)C3)C2 [Compound I-6] and report it.
7.90

Find the recorded pEC50 belonging to [2H]C([2H])([2H])OCC12CCC(CCN3CCc4c(nc(C(=O)Nc5cccc(-c6cccc(NC(=O)c7nc8c(n7C)CCN(CCC79CCC(C(=O)O)(CC7)C9)C8)c6C)c5Cl)n4C)C3)(CC1)C2 [Compound I-3] and report it.
7.97

Find the recorded pEC50 belonging to [2H]c1c([2H])c(NC(=O)c2nc3c(n2C([2H])([2H])[2H])CCN(CCC24CCC(COC([2H])([2H])[2H])(CC2)C4)C3)c(Cl)c(-c2c([2H])c([2H])c([2H])c(NC(=O)c3nc4c(n3C([2H])([2H])[2H])CCN(CCC35CCC(C(=O)O)(CC3)C5)C4)c2Cl)c1[2H] [Compound I-13] and report it.
7.58

====

List of half-life values.
assay: Pharmacokinetic assay after repeated oral administration; assay type: in vivo, B-hPD-1/hPD-L1 mice; conditions: female, B-hPD-1/hPD-L1, mouse; plasma, 50 mg/kg oral once a day, after administration on the 18th day
Number in h, nothing else.

{"structure": "[2H]C([2H])([2H])OCC12CCC(CCN3CCc4c(nc(C(=O)Nc5cccc(-c6cccc(NC(=O)c7nc8c(n7C)CCN(CCC79CCC(C(=O)O)(CC7)C9)C8)c6Cl)c5Cl)n4C)C3)(CC1)C2", "result_type": "half-life", "measured_number": 10.3}
{"structure": "Cc1c(Nc2nccc3cc(CN4CC[C@@H](O)C4)cnc23)cccc1-c1cccc(-c2nc3cc(CN4CC[C@@H](C(=O)O)C4)cc(C#N)c3o2)c1C", "result_type": "half-life", "measured_number": 3.9}
{"structure": "Cn1c(C(=O)Nc2cccc(-c3cccc(NC(=O)c4nc5c(n4C)CCN(CCC46CCC(C(=O)O)(CC4)C6)C5)c3Cl)c2Cl)nc2c1CCN(CCC13CCC(C(=O)O)(CC1)C3)C2", "result_type": "half-life", "measured_number": 4.2}

Proceeding to the next molecule to report its half-life.
Find the recorded half-life belonging to Cn1c(C(=O)Nc2cccc(-c3cccc(NC(=O)c4nc5c(n4C)CCN(CC46CCC(C(=O)O)(CC4)C6)C5)c3Cl)c2Cl)nc2c1CCN(CCO)C2 and report it.
3.8
